- ASSAY SUMMARY: Compound toxicity, ATPLite total ATP levels
- Type: cell-based
- COND: human, HepAD38 cells; 15,000 cells/well, three days after compound addition; 50% reduction of total ATP levels relative to no drug controls
- Experimental: Methods: HepAD38 cells are maintained as previously reported (Ladner et al, Antimicrob. Agents Chemother. 1997, […], 1715). Briefly, cells are passaged upon attaining confluency in DMEM/F12 media in the presence of 10% FBS, Penn/Strep, 250 μg/mL G418, and 1 ug/ml tetracycline. […] Compound toxicity is evaluated by seeding cells at 15,000 cells/well and treating with compound as described above. […]
REPORTED PROPERTY: CC50 at 3 days

Go through the list and state CC50 at 3 days for each entry.
1. CC(C)(C)OC(=O)N1CCN(S(=O)(=O)c2cc(-c3nc(-c4ccc(Br)c(F)c4)c[nH]3)ccc2Cl)CC1
2. O=S(=O)(c1cc(-c2ncc(-c3ccc(F)c(F)c3)[nH]2)cs1)N1CCC(O)CC1
3. O=C1CN(S(=O)(=O)c2cc(-c3ncc(-c4ccc(F)c(Br)c4)[nH]3)ccc2Cl)CCN1
4. O=S(=O)(c1cc(-c2nc(-c3ccccc3C3CC3)c[nH]2)ccc1Cl)N1CCC(O)CC1

1. < 10 µM
2. > 30 µM
3. 10 to 30 µM
4. > 30 µM

For every listed record, write down its CC50 at 3 days.
1. CN(CCO)S(=O)(=O)c1cc(-c2nc(-c3ccc(Br)c(F)c3)c[nH]2)ccc1Cl
2. N#Cc1ccc(-c2cnc(-c3ccc(Cl)c(S(=O)(=O)N4CCC(O)CC4)c3)[nH]2)cc1F
3. CCOC(=O)NCCCNS(=O)(=O)c1cc(-c2nc(-c3ccc(Br)c(F)c3)c[nH]2)ccc1Cl
4. COC(=O)NCCCNS(=O)(=O)c1cc(-c2ncc(-c3ccc(F)c(Br)c3)n2C(=O)OC)ccc1Cl
5. C#Cc1ccc(-c2c[nH]c(-c3ccc(Cl)c(S(=O)(=O)N4CCC(O)CC4)c3)n2)cc1F
6. O=S(=O)(c1cc(-c2nc(-c3ccc(Br)c(F)c3)c[nH]2)ccc1Cl)N1CCC(F)(F)CC1
7. O=S(=O)(c1cc(-c2ncc(-c3ccc(F)c(Cl)c3)[nH]2)ccc1Cl)N1CCC(O)CC1

1: 10 to 30 µM; 2: > 30 µM; 3: > 30 µM; 4: 10 to 30 µM; 5: > 30 µM; 6: < 10 µM; 7: 10 to 30 µM

Items follow; give CC50 at 3 days for each.
1. O=S(=O)(c1cc(-c2ncc(-c3ccccc3)[nH]2)ccc1Cl)N1CCC(O)CC1
2. O=S(=O)(c1cc(-c2nnc(-c3ccc(F)c(F)c3)[nH]2)ccc1Cl)N1CCC(O)CC1
3. O=S(=O)(c1cc(-c2cc(-c3ccc(F)c(F)c3)[nH]n2)ccc1Cl)N1CCC(O)CC1
4. O=S(=O)(c1cc(-c2cc(-c3ccc(F)c(Cl)c3)[nH]n2)ccc1Cl)N1CCC(O)CC1
5. CC1(O)CCN(S(=O)(=O)c2cc(-c3ncc(-c4ccc(F)c(Br)c4)[nH]3)ccc2Cl)CC1
6. O=S(=O)(c1cc(-c2nc(-c3ccc(Br)c(F)c3)c[nH]2)ccc1Cl)N1CC(O)C1
7. CS(=O)(=O)CCNS(=O)(=O)c1cc(-c2nc(-c3ccc(Br)c(F)c3)c[nH]2)ccc1Cl
8. O=S(=O)(c1cc(-c2nc(-c3ccccc3F)c[nH]2)ccc1Cl)N1CCC(O)CC1

["> 30 µM", "10 to 30 µM", "10 to 30 µM", "< 10 µM", "10 to 30 µM", "> 30 µM", "> 30 µM", "> 30 µM"]

Record `O=S(=O)(c1ccc2[nH]c(-c3ccccc3)nc2c1)N1CCC(O)CC1` , field CC50 at 3 days: > 30 µM
